- Test Target: diphosphomevalonate decarboxylase (Streptococcus pneumoniae D39) (UniProt Q9FD53)
- Measurement Description: diphosphomevalonate decarboxylase inhibitor confirmation – biochemical, cuvette format, coupled NADH fluorescence (AID 1028)
- Measurement Conditions: purified DPM-DC, rate, at 50 µM, active compounds read high
Entries with a potency or affinity are not part of this list.
Value Kind: inhibition (%)

>>> reported("O=C(NC1CC1)c1ccccc1-n1sc2ccccc2c1=O")
8
>>> reported("Nc1ccc2oc(-c3ccc(Cl)cc3)nc2c1")
12.8
>>> reported("Cc1ccccc1-c1nc2cccc(N)c2o1")
-2.22
>>> reported("COc1ccc2oc(-c3cc(C)ccc3C)nc2c1")
2.66
>>> reported("COc1ccc(OC)c(-c2nc3cc(OC)ccc3o2)c1")
2.12
>>> reported("O=C(c1ccccc1-n1sc2ccccc2c1=O)N1CCCCC1")
16.1
>>> reported("CN(C)C(=O)c1ccccc1-n1sc2ccccc2c1=O")
16.7
>>> reported("Cc1ccc(C)c(-c2nc3cc(N)ccc3o2)c1")
0.87
>>> reported("CCCN(CCC)C(=O)c1ccccc1-n1sc2ccccc2c1=O")
14.3
>>> reported("COc1ccc2nc(-c3cc(OC)c(OC)c(OC)c3)oc2c1")
3.99
>>> reported("COc1ccc2oc(-c3cccc(C)c3)nc2c1")
2.37
>>> reported("COc1ccc2nc(-c3ccc(C)cc3)oc2c1")
5.23
>>> reported("COc1ccc2oc(-c3ccc(C)cc3)nc2c1")
-3.06
>>> reported("Nc1ccc2oc(-c3ccc(F)cc3)nc2c1")
13.4
>>> reported("Nc1ccc2oc(-c3cccc(Cl)c3)nc2c1")
8.07
>>> reported("Nc1ccc2oc(-c3cccc(F)c3)nc2c1")
10.4
>>> reported("COc1ccc2oc(-c3ccncc3)nc2c1")
-0.2
>>> reported("COc1ccc2oc(-c3ccc(N)cc3)nc2c1")
7.74
>>> reported("COc1ccc2nc(-c3ccc(F)cc3)oc2c1")
4.34
>>> reported("Clc1cccc(-c2nc3ccccc3o2)c1")
1.68
>>> reported("O=C(c1ccccc1-n1sc2ccccc2c1=O)N1CCCC1")
16.1
>>> reported("Cc1ccc(C)c(-c2nc3c(N)cccc3o2)c1")
6.19
>>> reported("Cc1ccccc1-c1nc2ccccc2o1")
1.75
>>> reported("CCN(CC)C(=O)c1ccccc1-n1sc2ccccc2c1=O")
14.9
>>> reported("c1ccc(-c2nc3ccccc3o2)cc1")
2.96
>>> reported("COc1ccc2nc(-c3cc(C)ccc3C)oc2c1")
1.13
>>> reported("COc1ccc2oc(-c3ccc([N+](=O)[O-])cc3)nc2c1")
1.63

* * *

- Test Target: diphosphomevalonate decarboxylase (Streptococcus pneumoniae D39)
- Measurement Description: diphosphomevalonate decarboxylase inhibitor confirmation – biochemical, cuvette format, coupled NADH fluorescence (AID 1028)
- Measurement Conditions: purified DPM-DC, rate, at 50 µM, active compounds read high
Potency and affinity values are given separately.
Parameter inhibition: see the listing below.
Value Kind: inhibition (%)

>>> reported("Cc1cccc(-c2nc3ccccc3o2)c1")
5.31
>>> reported("COc1ccccc1-c1nc2ccccc2o1")
6.39
>>> reported("COc1ccc(-c2nc3cc(N)ccc3o2)cc1")
13.2
>>> reported("COc1ccc2nc(-c3ccccc3C)oc2c1")
4.59
>>> reported("Cc1ccccc1-c1nc2cc(N)ccc2o1")
6.79
>>> reported("COc1ccc(OC)c(-c2nc3cc(N)ccc3o2)c1")
10.3
>>> reported("Cc1ccc(C)c(-c2nc3cccc(N)c3o2)c1")
-0.39
>>> reported("Fc1cccc(-c2nc3ccccc3o2)c1")
4.51
>>> reported("COc1ccc2oc(-c3ccc(F)cc3)nc2c1")
1.68

// provenance: PubChem BioAssay AID1028
